Source: ChEMBL document CHEMBL1130322

Kindly supply the reported EC50 values for the records listed here.
test system: Human betaherpesvirus 5; assay: microbe, parasite or virus in culture

Exam item: Can you look up the measured EC50 of Nc1ncnc2c1ncn2C1CC(O)C(/C=N/O)O1 (configuration not stated) for me?
Marked response: 0.6 µg/mL

Exam item: Can you look up the measured EC50 of Nc1ncnc2c1ncn2[C@@H]1O[C@H](C=NO)[C@@H](O)[C@H]1O for me?
Marked response: 0.25 µg/mL

Exam item: Can you look up the measured EC50 of Nc1ncnc2c1ncn2C1OC(/C=N/O)CC1O (configuration not stated) for me?
Marked response: 10 µg/mL

Exam item: Can you look up the measured EC50 of Nc1ncnc2c1ncn2C1O[C@H](C(O)O)[C@@H](O)[C@@H]1O (some centres not stated) for me?
Marked response: > 40 µg/mL

Exam item: Can you look up the measured EC50 of CO/N=C/[C@H]1OC(n2cnc3c(N)ncnc32)[C@H](O)[C@@H]1O (some centres not stated) for me?
Marked response: > 10 µg/mL

Exam item: Can you look up the measured EC50 of Nc1ncnc2c1ncn2C1CC(O)C(C=O)O1 (configuration not stated) for me?
Marked response: > 40 µg/mL

Exam item: Can you look up the measured EC50 of Nc1ncnc2c1ncn2[C@@H]1O[C@H](C=NO)[C@@H](O)[C@@H]1O for me?
Marked response: > 10 µg/mL

Exam item: Can you look up the measured EC50 of Nc1ncnc2c1ncn2[C@@H]1O[C@H](C=O)[C@@H](O)[C@H]1O for me?
Marked response: > 40 µg/mL

Exam item: Can you look up the measured EC50 of O=c1[nH]c(=O)n([C@H]2C[C@H](O)[C@@H](CO)O2)cc1/C=C/Br for me?
Marked response: > 40 µg/mL

Exam item: Can you look up the measured EC50 of Nc1ncnc2c1ncn2C1OC(C=O)CC1O (configuration not stated) for me?
Marked response: > 40 µg/mL

Exam item: Can you look up the measured EC50 of CCO/N=C/[C@H]1OC(n2cnc3c(N)ncnc32)[C@H](O)[C@@H]1O (some centres not stated) for me?
Marked response: > 10 µg/mL

Exam item: Can you look up the measured EC50 of Nc1ncnc2c1ncn2C1O[C@H](/C=N/OCc2ccccc2)[C@@H](O)[C@H]1O (some centres not stated) for me?
Marked response: > 10 µg/mL

====

tested on: Human alphaherpesvirus 1; assay: microbe, parasite or virus in culture
Kindly supply the reported EC50 values for the records listed here.

Exam item: Can you look up the measured EC50 of Nc1ncnc2c1ncn2C1OC(/C=N/O)CC1O (stereo unspecified) for me?
Marked response: > 400 µg/mL

Exam item: Can you look up the measured EC50 of Nc1ncnc2c1ncn2C1O[C@H](C(O)O)[C@@H](O)[C@@H]1O (stereo partly specified) for me?
Marked response: 300 µg/mL

Exam item: Can you look up the measured EC50 of Nc1ncnc2c1ncn2[C@@H]1O[C@H](C=O)[C@@H](O)[C@H]1O for me?
Marked response: > 400 µg/mL

Exam item: Can you look up the measured EC50 of Nc1ccnc2c1ncn2[C@@H]1O[C@H](CO)[C@@H](O)[C@H]1O for me?
Marked response: > 400 µg/mL

Exam item: Can you look up the measured EC50 of Nc1ncnc2c1ncn2C1CC(O)C(/C=N/O)O1 (stereo unspecified) for me?
Marked response: > 100 µg/mL

Exam item: Can you look up the measured EC50 of Nc1ncnc2c1ncn2C1CC(O)C(C=O)O1 (stereo unspecified) for me?
Marked response: > 400 µg/mL

====

test system: Human alphaherpesvirus 1; assay: microbe, parasite or virus in culture
Readout name: EC50

Exam item: Can you look up the measured EC50 of O=c1[nH]c(=O)n([C@H]2C[C@H](O)[C@@H](CO)O2)cc1/C=C/Br [BRIVUDINE] for me?
Marked response: 0.04 µg/mL

Exam item: Can you look up the measured EC50 of Nc1ncnc2c1ncn2C1O[C@H](/C=N/OCc2ccccc2)[C@@H](O)[C@H]1O (stereo partly drawn) for me?
Marked response: > 40 µg/mL

Exam item: Can you look up the measured EC50 of Nc1ncnc2c1ncn2[C@@H]1O[C@H](C=NO)[C@@H](O)[C@@H]1O for me?
Marked response: 70 µg/mL

Exam item: Can you look up the measured EC50 of Nc1ncnc2c1ncn2[C@@H]1O[C@H](C=NO)[C@@H](O)[C@H]1O for me?
Marked response: > 4 µg/mL

Exam item: Can you look up the measured EC50 of CO/N=C/[C@H]1OC(n2cnc3c(N)ncnc32)[C@H](O)[C@@H]1O (stereo partly drawn) for me?
Marked response: > 200 µg/mL

Exam item: Can you look up the measured EC50 of CCO/N=C/[C@H]1OC(n2cnc3c(N)ncnc32)[C@H](O)[C@@H]1O (stereo partly drawn) for me?
Marked response: > 200 µg/mL

Exam item: Can you look up the measured EC50 of Nc1ncnc2c1ncn2C1OC(C=O)CC1O (stereo not drawn) for me?
Marked response: > 400 µg/mL

Exam item: Can you look up the measured EC50 of Nc1ncnc2c1ncn2C[C@H](O)CO [(S)-DHPA] for me?
Marked response: > 400 µg/mL

====

system: Vero; assay: cells; conditions: Chlorocebus sabaeus
Kindly supply the reported EC50 values for the records listed here.

Exam item: Can you look up the measured EC50 of Nc1ncnc2c1ncn2C1O[C@H](/C=N/OCc2ccccc2)[C@@H](O)[C@H]1O (some centres undefined) for me?
Marked response: > 100 µg/mL

Exam item: Can you look up the measured EC50 of O=c1[nH]c(=O)n([C@H]2C[C@H](O)[C@@H](CO)O2)cc1/C=C/Br for me?
Marked response: > 400 µg/mL

Exam item: Can you look up the measured EC50 of CO/N=C/[C@H]1OC(n2cnc3c(N)ncnc32)[C@H](O)[C@@H]1O (some centres undefined) for me?
Marked response: > 100 µg/mL

Exam item: Can you look up the measured EC50 of Nc1ncnc2c1ncn2[C@@H]1O[C@H](C=NO)[C@@H](O)[C@@H]1O for me?
Marked response: > 40 µg/mL

Exam item: Can you look up the measured EC50 of Nc1ccnc2c1ncn2[C@@H]1O[C@H](CO)[C@@H](O)[C@H]1O for me?
Marked response: 4 µg/mL

Exam item: Can you look up the measured EC50 of Nc1ncnc2c1ncn2C1OC(/C=N/O)CC1O (centres undefined) for me?
Marked response: > 400 µg/mL

Exam item: Can you look up the measured EC50 of Nc1ncnc2c1ncn2C1CC(O)C(/C=N/O)O1 (centres undefined) for me?
Marked response: > 100 µg/mL

Exam item: Can you look up the measured EC50 of Nc1ncnc2c1ncn2C1OC(C=O)CC1O (centres undefined) for me?
Marked response: > 200 µg/mL

Exam item: Can you look up the measured EC50 of Nc1ncnc2c1ncn2[C@@H]1O[C@H](C=NO)[C@@H](O)[C@H]1O for me?
Marked response: > 0.4 µg/mL

Exam item: Can you look up the measured EC50 of CCO/N=C/[C@H]1OC(n2cnc3c(N)ncnc32)[C@H](O)[C@@H]1O (some centres undefined) for me?
Marked response: > 100 µg/mL

Exam item: Can you look up the measured EC50 of Nc1ncnc2c1ncn2C[C@H](O)CO [(S)-DHPA] for me?
Marked response: > 400 µg/mL

Exam item: Can you look up the measured EC50 of Nc1ncnc2c1ncn2C1O[C@H](C(O)O)[C@@H](O)[C@@H]1O (some centres undefined) for me?
Marked response: > 200 µg/mL

Exam item: Can you look up the measured EC50 of Nc1ncnc2c1ncn2[C@@H]1O[C@H](C=O)[C@@H](O)[C@H]1O for me?
Marked response: > 200 µg/mL

Exam item: Can you look up the measured EC50 of Nc1ncnc2c1ncn2C1CC(O)C(C=O)O1 (centres undefined) for me?
Marked response: > 200 µg/mL

====

tested on: Vero; assay: cells; details: Chlorocebus sabaeus
Kindly supply the reported EC50 values for the records listed here.

Exam item: Can you look up the measured EC50 of Nc1ncnc2c1ncn2C1O[C@H](C(O)O)[C@@H](O)[C@@H]1O (stereo partly drawn) for me?
Marked response: 300 µg/mL

Exam item: Can you look up the measured EC50 of Nc1ncnc2c1ncn2[C@@H]1O[C@H](C=NO)[C@@H](O)[C@@H]1O for me?
Marked response: > 40 µg/mL

Exam item: Can you look up the measured EC50 of CCO/N=C/[C@H]1OC(n2cnc3c(N)ncnc32)[C@H](O)[C@@H]1O (stereo partly drawn) for me?
Marked response: > 100 µg/mL

====

tested on: MDCK; experiment: cells; settings: Canis lupus familiaris
Readout name: EC50 (µg/mL)
Note: unit µg/mL is implicit; provide only the numeric part.

Exam item: Can you look up the measured EC50 of CO/N=C/[C@H]1OC(n2cnc3c(N)ncnc32)[C@H](O)[C@@H]1O (some centres undefined) for me?
Marked response: 4

Exam item: Can you look up the measured EC50 of CCO/N=C/[C@H]1OC(n2cnc3c(N)ncnc32)[C@H](O)[C@@H]1O (some centres undefined) for me?
Marked response: 1.2

Exam item: Can you look up the measured EC50 of Nc1ncnc2c1ncn2C1O[C@H](/C=N/OCc2ccccc2)[C@@H](O)[C@H]1O (some centres undefined) for me?
Marked response: 20
